# test target: Purine nucleoside phosphorylase (Homo sapiens)
pKi: −log10 of the molar value.
quantity kind: pKi

A: OC[C@H]1N[C@@H](c2c[nH]c3c(S)ncnc23)C(O)[C@H]1O (stereo not given in full)
B: OC[C@@H]1[C@H](O)C(O)CN1Cc1c[nH]c2c(O)ncnc12 (stereo not given in full)
Ask | Form: Entry with minimum pKi (choose one): A / B Respond using the label that marks the chosen record.
Reply | A
(A: 7.61, B: 8.55)

====

These records show pKi for Purine nucleoside phosphorylase (Homo sapiens, UniProt P00491).
pKi: −log10 of the molar value.
quantity kind: pKi

Here's what some known entries look like.
molecule	quantity kind	reported
Nc1nc(O)c2[nH]cc([C@H]3C[C@@H](O)[C@@H](CO)N3)c2n1	pKi	9.66
Nc1nc2c([C@@H]3N[C@H](CO)[C@@H](O)[C@H]3O)c[nH]c2c(=O)[nH]1	pKi	9.27

P: OC[C@H]1N[C@@H](c2c[nH]c3c(O)ncnc23)C[C@H]1O
Q: OC[C@H]1N[C@@H](c2c[nH]c3c(O)ncnc23)C(F)(F)[C@H]1O
R: COC1[C@@H](O)[C@@H](CO)N[C@H]1c1c[nH]c2c(=O)[nH]cnc12 (stereo not given in full)
Ask | # desc sort on pKi across 3 molecules Your answer should be the labels, listed in the requested order.
Reply | P, Q, R
(P: 9.60, Q: 8.85, R: 8.23)

====

pKi: −log10 of the molar value.
These records show pKi for UniProt:P00491.
quantity kind: pKi

Here's what some known entries look like.
compound	quantity kind	reported
OC[C@H]1N[C@@H](c2n[nH]c3c(O)ncnc23)[C@H](O)[C@@H]1O	pKi	9.74
Nc1nc2c([C@@H]3N[C@H](CO)[C@@H](O)[C@H]3O)c[nH]c2c(=O)[nH]1	pKi	10.38

1: Oc1ncnc2c([C@@H]3N[C@H](CF)[C@H](O)C3O)c[nH]c12 (some centres undefined)
2: OC[C@H]1N[C@@H](c2c(F)[nH]c3c(O)ncnc23)C(O)[C@H]1O (some centres undefined)
Ask | Form: Entry with minimum pKi (choose one): 1 / 2 Respond using the label that marks the chosen record.
Reply | 1

====

# test target: Purine nucleoside phosphorylase (Homo sapiens, UniProt P00491)
# Sequence (P00491 whole entry): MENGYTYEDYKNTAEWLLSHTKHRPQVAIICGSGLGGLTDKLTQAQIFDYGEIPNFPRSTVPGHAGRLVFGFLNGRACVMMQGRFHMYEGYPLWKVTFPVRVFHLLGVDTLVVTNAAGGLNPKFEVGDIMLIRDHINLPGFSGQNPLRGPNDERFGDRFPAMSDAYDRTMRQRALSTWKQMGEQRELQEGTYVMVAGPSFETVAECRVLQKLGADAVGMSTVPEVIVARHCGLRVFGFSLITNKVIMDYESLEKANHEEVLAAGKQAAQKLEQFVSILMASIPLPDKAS
pKi: −log10 of the molar value.
quantity kind: pKi

molecule	pKi
Cc1nc2c(O)[nH]cnc-2c1[C@@H]1N[C@H](CO)[C@H](O)C1O (some centres undefined)	8.00
OC[C@H]1N[C@@H](c2n[nH]c3c(O)ncnc23)[C@H](O)[C@@H]1O	8.85

1: OC[C@@H]1CC(O)[C@H](c2c[nH]c3c(O)ncnc23)N1 (some centres undefined)
2: Oc1ncnc2c([C@@H]3N[C@H](CF)[C@H](O)C3O)c[nH]c12 (some centres undefined)
Ask | Parameter check: reported pKi is higher for which label, 1 or 2 ? Respond using the label that marks the chosen record.
Reply | 1
(1: 8.02, 2: 7.09)
